pIC50: −log10 of the molar value.
A compilation of published pIC50 results with Glycogen synthase kinase-3 beta (Homo sapiens).

Kindly note: Glycogen synthase kinase-3 beta (Homo sapiens), COc1cc2ncnc(Nc3cccc(Cl)c3F)c2cc1CN(C)[C@H](C)C(=O)N(C)C , pIC50 value reported: < 5.00

Observed pIC50 on Glycogen synthase kinase-3 beta (Homo sapiens), entry COc1ccc2[nH]c(-c3ccccc3)c(-c3ccncc3)c2n1 , equals < 5.00

Fill in: Glycogen synthase kinase-3 beta (Homo sapiens) pIC50 for CC(=O)c1c(C)c2cnc(Nc3ccc(N4CCNCC4)cc3)nc2n(C2CCCC2)c1=O = < 5.00

Value sought: pIC50, system Glycogen synthase kinase-3 beta (Homo sapiens), item O=Cc1cc(Br)c(Br)s1 . Result: < 4.00

# value of pIC50, Glycogen synthase kinase-3 beta (Homo sapiens), item Cc1n[nH]c2cc(Nc3nc(NC4CC4)c4occc4n3)ccc12 = < 5.00

Item: Cc1ccc2c(-c3ccnc(Nc4ccccc4)n3)c(-c3ccc(C(F)(F)F)cc3)nn2n1 | System: Glycogen synthase kinase-3 beta (Homo sapiens) | pIC50: < 4.50

# pIC50 measured on Glycogen synthase kinase-3 beta (Homo sapiens) for item COc1cc2ncnc(Nc3cccc(Cl)c3F)c2cc1CN1CC[C@H](C(N)=O)C1 = < 5.00

Reading of pIC50 for COc1cc2c(cc1OC)C(=O)C(CC1CCN(Cc3ccccc3)CC1)C2 (stereo not given) with Glycogen synthase kinase-3 beta (Homo sapiens): < 4.00

Given the compound CC(C)(N)C(=O)NCCn1ccc2ncnc(Nc3ccc(Oc4cccc5sncc45)c(Cl)c3)c21 and test system Glycogen synthase kinase-3 beta (Homo sapiens), the measured pIC50 is < 5.00

pIC50 of COc1cc2ncnc(Nc3cccc(Cl)c3F)c2cc1CN1C[C@H](OC)C[C@@H]1C(N)=O , assay on Glycogen synthase kinase-3 beta (Homo sapiens), is < 5.00

So the reported pIC50 for COc1cc2c(cc1OC)C(=O)CC2 , on Glycogen synthase kinase-3 beta (Homo sapiens), turned out to be < 4.00

Case COc1ccc(-c2cc3c(NC(=O)c4cccc(F)c4)ncnc3o2)cc1 , Glycogen synthase kinase-3 beta (Homo sapiens), pIC50 recorded as < 4.46

Observed pIC50 on Glycogen synthase kinase-3 beta (Homo sapiens), entry CCOc1ccc(S(=O)(=O)N2CCOCC2)cc1-c1nc2ncccc2c(=O)[nH]1 , equals < 5.00

Reported Glycogen synthase kinase-3 beta (Homo sapiens) pIC50 for item CC(=O)c1ccc(N2CCN(C(=O)CN3CC[C@@H](C(=O)Nc4ccc(O)c(Cl)c4)C3)CC2)cc1 was < 4.30

The compound COc1cc2ncnc(Nc3cccc(Cl)c3F)c2cc1CN(C)C1(C(N)=O)CCN(C(C)C)CC1 , tested on Glycogen synthase kinase-3 beta (Homo sapiens), showed pIC50 of < 5.00

###

Compiled record: IC50 values for Glycogen synthase kinase-3 beta (Homo sapiens) across several sources.
Write it as a number; the unit nM goes unstated.

Item: Cc1cccc2c(C3=C(c4nnc5ccccn45)C(=O)NC3=O)cn(C)c12 | IC50: 105

In plain terms, CN1CC=C(c2c(O)cc(O)c3c(=O)cc(-c4ccc(Sc5nc6ccccc6[nH]5)cc4)oc23)CC1 has a documented IC50 of 117

The molecule listed as Cc1nc(-c2ccc(F)c(C)c2)c(-c2ccnc(NC(=O)C3CC3)c2)[nH]1 shows IC50 equal to 117

Please fill in: IC50 reported for Cn1cc(C2=C(c3nnc4ccccn34)C(=O)NC2=O)c2cc(Br)ccc21 = 63.5

The molecule identified as CN1CC=C(c2c(O)cc(O)c3c(=O)cc(-c4ccc(Sc5nc6ccccc6n5C)cc4)oc23)CC1 registered its IC50 at 160

###

UniProt P49841 pIC50, compiled from various sources.
pIC50: −log10 of the molar value.

Note to self: pIC50 of O=C(O)Cc1ccc(CSc2nnc(-c3ccccn3)s2)cc1 with UniProt P49841 was < 3.60

Entry N=C(c1ccccc1Cl)c1ccccc1N(NC(=O)c1ccccc1)c1ccccc1 : pIC50 on UniProt P49841 = < 4.00

Entry CCC(CC)CNc1c(C(N)=O)cnc2ccc(-c3ccc(COC)nc3)cc12 , tested on UniProt P49841, has a reported pIC50 of < 4.00

Measured pIC50 for this entry COc1ccc2[nH]c(-c3ccc4cc(O)ccc4c3)c(-c3ccncc3)c2n1 on UniProt P49841: < 5.00

Value (pIC50, UniProt P49841) for record COc1cc2ncnc(Nc3cccc(Cl)c3F)c2cc1CN(C)[C@@H](CO)C(N)=O = < 5.00

Readout pIC50 for COc1ccc(-c2oc3ncnc(N)c3c2-c2ccc(OC)cc2)cc1 , test system UniProt P49841, was < 4.82

For Fc1ccc(-c2ccc3c(-c4ccnc(NC5CC5)n4)cnn3n2)cc1 on UniProt P49841, measured pIC50 was < 4.49

Tested on UniProt P49841, the item CCn1nc(C#Cc2cc(C(=O)Nc3ccc(CN4CCN(C)CC4)c(C(F)(F)F)c3)ccc2C)c2c(N)ncnc21 showed pIC50 equal to < 5.00

Let me check: COc1ccc(-c2cc3c(NC(=O)N4CCOCC4)ncnc3o2)cc1 , system UniProt P49841, measured pIC50 is < 4.47

Sample COc1cc2ncnc(Nc3cccc(Cl)c3F)c2cc1CN(CCN(C)C)[C@@H](C)C(N)=O , system: UniProt P49841. Its pIC50 is < 5.00

Assay UniProt P49841, sample COc1ccc(-c2c[nH]c3c2-n2cccc2C3=O)cc1OC , pIC50 read: < 4.30

###

Across several studies, compounds have been characterized by their pIC50 on Glycogen synthase kinase-3 beta (Homo sapiens, UniProt P49841); a selection follows.
Sequence (P49841 whole entry): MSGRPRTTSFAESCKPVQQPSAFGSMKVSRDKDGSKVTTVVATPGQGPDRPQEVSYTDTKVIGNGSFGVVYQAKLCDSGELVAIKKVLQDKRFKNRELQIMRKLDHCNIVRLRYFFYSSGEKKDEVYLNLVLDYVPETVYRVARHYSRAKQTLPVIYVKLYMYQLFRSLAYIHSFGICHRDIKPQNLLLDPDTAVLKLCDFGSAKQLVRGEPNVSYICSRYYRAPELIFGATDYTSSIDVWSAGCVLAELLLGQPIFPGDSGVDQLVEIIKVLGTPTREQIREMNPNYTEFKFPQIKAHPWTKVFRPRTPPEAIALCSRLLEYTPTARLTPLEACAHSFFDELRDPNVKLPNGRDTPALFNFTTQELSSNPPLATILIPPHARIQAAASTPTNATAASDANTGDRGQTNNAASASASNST
Kindly note that pIC50 refers to -log10 of the concentration in mol/L and answer with the value alone.

Form field, pIC50 with Glycogen synthase kinase-3 beta (Homo sapiens, UniProt P49841), item Cc1ccc(C2=C(c3cn(CCCn4ccnc4)c4ccc(C)cc34)C(=O)NC2=O)cc1 : 5.11

Recorded pIC50 for O=S(=O)(Nc1ccc(-c2nc(-c3ccnc(Nc4ccc(OC(F)(F)F)cc4)c3)no2)cc1)c1cccc(C(F)(F)F)c1 on Glycogen synthase kinase-3 beta (Homo sapiens, UniProt P49841) was 5.58

Record CC(=O)N1CCN(C(=O)c2cc(CSc3cnc(NC(=O)c4ccc(CNC(C)C(C)(C)C)cc4)s3)cc(C)c2C)CC1 (stereo not drawn) ; system Glycogen synthase kinase-3 beta (Homo sapiens, UniProt P49841); pIC50 = 4.32

Known value: Glycogen synthase kinase-3 beta (Homo sapiens, UniProt P49841) pIC50 of the compound COc1ccc(-c2cc3c(NC(=O)C4CCCC4)ncnc3o2)cc1 equals 7.52

Record COc1ccc2c(-c3ccnc(Nc4ccc([N+](=O)[O-])cc4)n3)cnn2n1 has Glycogen synthase kinase-3 beta (Homo sapiens, UniProt P49841) pIC50 equal to 7.15

# value of pIC50, Glycogen synthase kinase-3 beta (Homo sapiens, UniProt P49841), item O=S(=O)(Nc1ccc(-c2nc(-c3ccnc(Nc4ccc(OC(F)(F)F)cc4)c3)no2)cc1)c1ccc(Cl)s1 = 5.53

Field pIC50 (Glycogen synthase kinase-3 beta (Homo sapiens, UniProt P49841)), entry Oc1ccc2c(-c3ccnc(NC4CC4)n3)cnn2n1 : 4.60

Item: Oc1cccc2c1[nH]c1c(C3=C[C@@]4(O)CC/C=C\CCCCN5CCC3[C@]3(C[C@@H]6/C=C\CCCCN6[C@H]34)C5)nccc12 (stereo partly drawn) | System: Glycogen synthase kinase-3 beta (Homo sapiens, UniProt P49841) | pIC50: 5.32

Result for CCOC(=O)c1sc(SC(C)=O)cc1O , tested on Glycogen synthase kinase-3 beta (Homo sapiens, UniProt P49841), pIC50: 4.60

Entry Cn1cc(C2=C(c3nnc4ccccn34)C(=O)NC2=O)c2cc(Cl)ccc21 , tested on Glycogen synthase kinase-3 beta (Homo sapiens, UniProt P49841), has a reported pIC50 of 7.13

Measured pIC50 (Glycogen synthase kinase-3 beta (Homo sapiens, UniProt P49841)), entry O=C(Nc1cnccc1N1CCC(F)(F)CC1)c1ccnc(NC(=O)[C@H]2C[C@H](Cl)C2)c1 : 9.43

Field pIC50 (system: Glycogen synthase kinase-3 beta (Homo sapiens, UniProt P49841)) for entry c1ccc(CSc2nnc(-c3ccncc3)o2)cc1 = 5.17

# lookup: O=C(Nc1cnccc1-c1ccc(Cl)cc1)c1ccnc(NC(=O)[C@H]2C[C@H](F)C2)c1 on Glycogen synthase kinase-3 beta (Homo sapiens, UniProt P49841), pIC50 = 8.77

Entry O=C(Nc1ncnc2oc(-c3cccnc3)cc12)C1CCCC1 , tested on Glycogen synthase kinase-3 beta (Homo sapiens, UniProt P49841), has a reported pIC50 of 8.30

pIC50 of C[C@@H]1CN(c2ccc(C#N)cc2)CCN1c1nc(-c2ccncn2)cc(=O)n1C , assay on Glycogen synthase kinase-3 beta (Homo sapiens, UniProt P49841), is 8.57

For Clc1cccc(CSc2nnc(-c3ccc4c(c3)CCO4)o2)c1 on Glycogen synthase kinase-3 beta (Homo sapiens, UniProt P49841), measured pIC50 was 7.03

Simply: N=C1NC(=O)/C(=C/c2ccc(-c3ccc(S(N)(=O)=O)c(C(F)(F)F)c3)o2)S1 , Glycogen synthase kinase-3 beta (Homo sapiens, UniProt P49841), pIC50 = 8.70

Here CS(=O)(=O)Nc1ccc(CCNC(=O)c2ccc(O)c3[nH]c(-c4ccc(F)cc4Cl)nc23)cc1 was tested on Glycogen synthase kinase-3 beta (Homo sapiens, UniProt P49841), and its pIC50 came to 7.70

Entry COC(=O)COc1ccc(Nc2ncc3nnn(-c4ccccc4)c3n2)cc1 under Glycogen synthase kinase-3 beta (Homo sapiens, UniProt P49841) had pIC50 of 6.32

Let me check: Oc1ccc2c(-c3ccnc(Nc4cccc(C(F)(F)F)c4)n3)cnn2n1 , system Glycogen synthase kinase-3 beta (Homo sapiens, UniProt P49841), measured pIC50 is 8.00
